These data points were gathered from patent US11993574B2.

Target: Human RAR-related Orphan Receptor Gamma (RORγ) (Homo sapiens)
Sequence (P51449 269-508 limits assumed): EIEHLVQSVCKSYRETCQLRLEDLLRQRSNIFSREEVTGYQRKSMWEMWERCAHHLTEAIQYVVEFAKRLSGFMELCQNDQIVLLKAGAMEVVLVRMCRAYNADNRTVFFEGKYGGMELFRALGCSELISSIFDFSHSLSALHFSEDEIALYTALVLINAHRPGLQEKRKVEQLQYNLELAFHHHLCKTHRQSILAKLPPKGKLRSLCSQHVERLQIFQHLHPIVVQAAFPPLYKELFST
Experiment: RORγ assay (GAL4-RORγ hybrid luciferase reporter, Indigo Biosciences)
Conditions: inverse-agonist activity, GAL4-RORγ reporter cells, 23 hours
Kindly supply the reported IC50 values for the records listed here.
Answers are plain numbers, in nM.

Below, each entry is followed by its recorded IC50 result.
Cc1cc(-c2ccc(-n3nc(-c4nc(C)no4)c4c3[C@]3(C)C=C(C#N)C(=O)[C@H](C)[C@H]3CC4)cc2)cnn1 [T108]    154
CC(C)c1ccc(-c2nc3c(n2-c2cccnc2)CC[C@@H]2[C@@H](C)C(=O)C(C#N)=C[C@@]32C)cc1 [T153]    334

Proceeding to the next compound to report its IC50.
Record CC(C)c1ccc(-c2nc3c(n2-c2cnn(C)c2)CC[C@@H]2[C@@H](C)C(=O)C(C#N)=C[C@@]32C)cc1 [T156] , field IC50: 117

====

Kindly supply the reported log10 IC50 values for the records listed here.
Test system: IL-17A
Experiment: IL-17 release from differentiated primary human T-cells (IL-17A HTRF assay)
Type: cell-based
Settings: primary human CD4+ T cells differentiated into Th17 cells, 45-hour incubation, IL-17A in supernatant; read-out: hIL17 IC50
Remember, log10 of IC50, in nM.

Below, each entry is followed by its recorded log10 IC50 result.
C[C@H]1C(=O)C(C#N)=C[C@@]2(C)c3c(c(-c4ccccc4)nn3-c3ccc(C(F)(F)F)cc3)CC[C@H]12    1.54
C[C@H]1C(=O)C(C#N)=C[C@@]2(C)c3c(c(-c4cccnc4)nn3-c3ccc(-c4cncc(F)c4)cc3)CC[C@H]12    1.49
C[C@H]1C(=O)C(C#N)=C[C@@]2(C)c3c(c(-c4ccc(F)cc4)nn3-c3ccc(-c4ccnc(CF)c4)cc3)CC[C@H]12    1.38
C[C@H]1C(=O)C(C#N)=C[C@@]2(C)c3c(c(NC4CCC4)nn3-c3ccc(-c4ccccc4)cc3)CC[C@H]12    1.68
C[C@H]1C(=O)C(C#N)=C[C@@]2(C)c3nn(-c4ccc(-c5ccccc5)cc4)c(-c4ccncn4)c3CC[C@H]12    1.73

Please state log10 IC50 for every compound in the list that follows.
1. C[C@H]1C(=O)C(C#N)=C[C@@]2(C)c3c(c(-c4cccnc4)nn3-c3nc4ccccc4s3)CC[C@H]12
2. Cc1ccc(-n2nc(-c3ccccc3)c3c2[C@]2(C)C=C(C#N)C(=O)[C@H](C)[C@H]2CC3)nc1
3. C[C@H]1C(=O)C(C#N)=C[C@@]2(C)c3nn(-c4ccncc4)c(-c4ccc(F)cc4)c3CC[C@H]12
4. C[C@H]1C(=O)C(C#N)=C[C@@]2(C)c3c(c(-c4ccc(F)cc4)nn3-c3ccc(-c4ncon4)cc3)CC[C@H]12
5. Cc1nc(-c2ccc(-n3nc(-c4cccnc4)c4c3[C@]3(C)C=C(C#N)C(=O)[C@H](C)[C@H]3CC4)cc2)no1
6. Cc1ccc(-n2nc(-c3ccccc3)c3c2[C@]2(C)C=C(C#N)C(=O)[C@H](C)[C@H]2CC3)cc1
7. C[C@H]1C(=O)C(C#N)=C[C@@]2(C)c3c(c(-c4ccccc4)nn3-c3ccc(-c4ccc(CO)cc4)cc3)CC[C@H]12
8. CC(C)c1ccc(-c2nc3c(n2C)CC[C@@H]2[C@@H](C)C(=O)C(C#N)=C[C@@]32C)cc1

[1.94, 2.00, 2.39, 1.83, 1.88, 1.88, 1.54, 2.41]

Please state log10 IC50 for every compound in the list that follows.
1. C[C@H]1C(=O)C(C#N)=C[C@@]2(C)c3nc(-c4cccc(-c5cncc(F)c5)c4)n(-c4cccc(F)c4)c3CC[C@H]12
2. C[C@H]1C(=O)C(C#N)=C[C@@]2(C)c3nc(C4CCOCC4)n(-c4cccc(F)c4)c3CC[C@H]12
3. C[C@H]1C(=O)C(C#N)=C[C@@]2(C)c3c(c(-c4ccncn4)nn3-c3ccc(-c4cccc(CF)c4)cn3)CC[C@H]12

1.93
2.44
2.06

====

Tested on: IL-17A
Assay: IL-17 release from differentiated primary human T-cells (IL-17A HTRF assay)
Format: cell-based
Details: primary human CD4+ T cells differentiated into Th17 cells, 45-hour incubation, IL-17A in supernatant; read-out: hIL17 IC50
Kindly supply the reported pIC50 values for the records listed here.
One number for each entry, as −log10 of the molar value.

C[C@H]1C(=O)C(C#N)=C[C@@]2(C)c3c(c(-c4ccccc4F)nn3-c3ccc(-c4ccccc4)cc3)CC[C@H]12    7.72

Please state pIC50 for every molecule in the list that follows.
1. C[C@H]1C(=O)C(C#N)=C[C@@]2(C)c3c(c(-c4ccncn4)nn3-c3ccc(-c4cccc(CO)c4)cn3)CC[C@H]12
2. C[C@H]1C(=O)C(C#N)=C[C@@]2(C)c3nc(-c4cccc(N5CCOCC5)c4)n(-c4cccc(F)c4)c3CC[C@H]12
3. C[C@H]1C(=O)C(C#N)=C[C@@]2(C)c3c(c(-c4ccncn4)nn3-c3ccc(-c4ccc(F)cc4)cn3)CC[C@H]12
4. C[C@H]1C(=O)C(C#N)=C[C@@]2(C)c3c(c(-c4ccncn4)nn3-c3ccc(-c4cncnc4)cc3)CC[C@H]12
5. C[C@H]1C(=O)C(C#N)=C[C@@]2(C)c3nc(Cc4ccccc4)n(-c4cccc(F)c4)c3CC[C@H]12
6. C[C@H]1C(=O)C(C#N)=C[C@@]2(C)c3c(c(-c4ccccc4F)nn3-c3nc4ccccc4n3C)CC[C@H]12

1: 6.85; 2: 6.88; 3: 7.26; 4: 6.49; 5: 6.54; 6: 7.24

Please state pIC50 for every molecule in the list that follows.
1. C[C@H]1C(=O)C(C#N)=C[C@@]2(C)c3c(c(-c4ccccc4)nn3-c3ccc(Cl)cc3)CC[C@H]12
2. CC(C)c1ccc(-c2nc3c(n2CCOCc2ccccc2)CC[C@@H]2[C@@H](C)C(=O)C(C#N)=C[C@@]32C)cc1
3. CC(C)c1ccc(-c2nc3c(n2-c2cnn(C)c2)CC[C@@H]2[C@@H](C)C(=O)C(C#N)=C[C@@]32C)cc1
4. Cc1ccccc1-n1nc2c(c1-c1ccccc1)CC[C@@H]1[C@@H](C)C(=O)C(C#N)=C[C@@]21C

7.02
6.68
6.89
6.74

====

System: IL-17A
Test: IL-17 release from differentiated primary human T-cells (IL-17A HTRF assay)
Type: cell-based
Settings: primary human CD4+ T cells differentiated into Th17 cells, 45-hour incubation, IL-17A in supernatant; read-out: hIL17 IC50
Use IC50 to assign classes; range list: bucket 1: < 40 nM; bucket 2: ≥ 40 nM and < 90 nM; bucket 3: ≥ 90 nM

As a guide, the following entries are already answered.
CC(C)c1ccc(-c2nc3c([nH]2)CC[C@@H]2[C@@H](C)C(=O)C(C#N)=C[C@@]32C)cc1 [T173]    bucket 3
C[C@H]1C(=O)C(C#N)=C[C@@]2(C)c3c(c(-c4ccccc4)nn3-c3ccc(-c4cccc(F)c4)cc3)CC[C@H]12 [T40]    bucket 1

// return the class label for C[C@H]1C(=O)C(C#N)=C[C@@]2(C)c3c(c(-c4ccc(F)cc4)nn3-c3ccc(-c4cccnn4)cc3)CC[C@H]12 [T178]
bucket 1

// return the class label for CC(C)c1ccc(-c2nc3c(n2-c2cccnc2)CC[C@@H]2[C@@H](C)C(=O)C(C#N)=C[C@@]32C)cc1 [T153]
bucket 3

// return the class label for CC(C)c1ccc(-c2nc3c(n2Cc2ccncc2)CC[C@@H]2[C@@H](C)C(=O)C(C#N)=C[C@@]32C)cc1 [T171]
bucket 3

// return the class label for COc1ccc(-c2ccc(-n3nc(-c4ccccc4)c4c3[C@]3(C)C=C(C#N)C(=O)[C@H](C)[C@H]3CC4)cc2)cc1 [T46]
bucket 1

// return the class label for C[C@H]1C(=O)C(C#N)=C[C@@]2(C)c3nc(-c4ccccc4)n(-c4cccc(F)c4)c3CC[C@H]12 [T134]
bucket 3

// return the class label for C[C@H]1C(=O)C(C#N)=C[C@@]2(C)c3c(c(-c4ccccc4)nn3-c3ccc(-c4ccccc4)cn3)CC[C@H]12 [T97]
bucket 1

// return the class label for C[C@H]1C(=O)C(C#N)=C[C@@]2(C)c3c(c(-c4ccccc4)nn3-c3ccnc4ccccc34)CC[C@H]12 [T8]
bucket 2

// return the class label for C[C@H]1C(=O)C(C#N)=C[C@@]2(C)c3c(c(-c4ccccc4F)nn3-c3nc4ccccc4[nH]3)CC[C@H]12 [T91]
bucket 3

// return the class label for C[C@H]1C(=O)C(C#N)=C[C@@]2(C)c3c(c(-c4ccncn4)nn3-c3ccc(-c4cncc(F)c4)cc3)CC[C@H]12 [T49]
bucket 2

// return the class label for C[C@H]1C(=O)C(C#N)=C[C@@]2(C)c3c(c(-c4ccccc4)nn3C3CCCCC3)CC[C@H]12 [T2]
bucket 2
